# Measurement target: Stearoyl-CoA desaturase (Homo sapiens)
# Sequence (O00767 whole entry): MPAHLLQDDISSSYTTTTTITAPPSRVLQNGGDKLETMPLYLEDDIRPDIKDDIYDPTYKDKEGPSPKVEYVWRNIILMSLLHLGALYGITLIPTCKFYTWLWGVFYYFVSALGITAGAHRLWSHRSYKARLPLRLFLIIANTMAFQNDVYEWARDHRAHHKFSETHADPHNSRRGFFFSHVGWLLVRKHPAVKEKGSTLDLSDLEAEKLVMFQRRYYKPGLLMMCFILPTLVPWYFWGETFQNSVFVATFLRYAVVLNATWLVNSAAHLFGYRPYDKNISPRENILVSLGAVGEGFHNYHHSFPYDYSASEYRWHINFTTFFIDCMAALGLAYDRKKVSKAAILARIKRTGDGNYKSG
# Assay notes: Inhibition of stearoyl-CoA delta9 desaturase in human HepG2 cells
Could you please report measured IC50 for the items listed next?
Provide only the numeric value, understood in nM.

Quick one: IC50 for `O=C(CO)Nc1ccc2ncn(Cc3ccc(Cl)c(Cl)c3)c(=O)c2c1` ?
119

Quick one: IC50 for Cc1nc2ccc(NCc3cccc(C(F)(F)F)c3)cc2n(CCNC(=O)C(O)CO)c1=O (racemic) ?
68

Quick one: IC50 for `COc1ccc(-c2nc3ccc(NCc4cccc(C(F)(F)F)c4)cc3n(CCNC(C)=O)c2=O)cc1` ?
33

Quick one: IC50 for `O=C(CO)NCCN1C(=O)COc2ccc(NCc3ccc(Cl)c(Cl)c3)cc21` ?
0.5

Quick one: IC50 for `O=C(CO)NCCn1c(=O)c(C(F)(F)F)nc2ccc(NCc3cccc(C(F)(F)F)c3)cc21` ?
2.7
